system: HOP-62; assay: NCI tumour cell line growth inhibition, 48 h
Activity calls are given as the source filed them. Rule as the data show it: active = GI50 up to about 1.1 µM and inactive = higher.
Returns: one label drawn from active, inactive

Solved cases below.
INSERT INTO measurements (compound, cat) VALUES
  ('O=C(O)C/N=C(\C(=N\CC(=O)O)c1ccccc1)c1ccccc1', 'inactive'),
  ('CCOC(=O)C(C(=O)OCC)S(C)(=O)=O', 'inactive'),
  ('CCCCCCCCCCCCCCCC(=O)Nc1ccn(C2OC(CO)C(O)C2O)c(=O)n1 (centres undefined)', 'active'),
  ('O=c1[nH]nc(Cc2ccc(Cl)cc2)n1/N=C/c1ccc([N+](=O)[O-])o1', 'inactive');

INPUT: Answer briefly: the call reported for O=C1C=Cc2c(Br)sc(Br)c21 in this assay.
OUTPUT: inactive

INPUT: Assay outcome for O=C(CCN1CCN(c2ccccc2)CC1)N1CCc2c([nH]c3ccccc23)C1c1cccnc1 (centres undefined) : what was it?
OUTPUT: inactive

###

The entries below come with measured GI50 values attached.
system: HCC 2998; assay: NCI tumour cell line growth inhibition, 48 h
Calls of active or inactive are those of the source. Rule as the data show it: active = GI50 up to about 1.1 µM and inactive = higher.

INSERT INTO measurements (molecule, target, obs_value) VALUES
  ('C=CC/N=C1\NC(=O)C(CC(=O)Nc2ccc(C)cc2)S1 (stereo not given)', 'HCC 2998', '> 100 µM (inactive)');

In plain terms, CC(=O)Nc1ccc2c3c(cc(O)c2c1)N(C(=O)CCCCC(=O)Nc1ccc2c4c(cc(O)c2c1)N(C(=O)OC(C)(C)C)CC4CCl)CC3CCl (stereo not given) has a documented GI50 of 1.66 µM (inactive)

###

system: SNB-75; assay: NCI tumour cell line growth inhibition, 48 h
Active and inactive are the calls of the source. No stated cut-off is given here; in the data, active = GI50 up to about 1.1 µM and inactive = higher. Peptide text beside a SMILES is read from it. * marks the point of attachment. Boc = CC(C)(C)OC(=O)*
Your reply should match one of these outcome classes. yes for active, no for inactive

These recorded examples may help you get a feel for the data.
INSERT INTO results (molecule, target, cat) VALUES
  ('CC(NC(=O)OC(C)(C)C)C(=O)NC(Cc1ccccc1)C(=O)NCC(=O)O (stereo not drawn) (Boc-Ala-Phe-Gly-OH; configuration not given here)', 'SNB-75', 'no'),
  ('C[C@@]12[C@H]3CC[C@@H]1[C@H](O)C(=O)N2CC3', 'SNB-75', 'no'),
  ('COC1C(OC(=O)c2ccc(C)[nH]2)C(O)C(Oc2ccc3c(O)c(NC(=O)c4c[nH]c(C(=O)Nc5c(O)c6ccc(OC7OC(C)(C)C(OC)C(OC(=O)c8ccc(C)[nH]8)C7O)c(C)c6oc5=O)c4C)c(=O)oc3c2C)OC1(C)C (stereo not drawn)', 'SNB-75', 'yes'),
  ('CCc1ccc(Nc2ccc([N+](=O)[O-])cc2[N+](=O)[O-])cc1', 'SNB-75', 'no'),
  ('Clc1ccc(Cc2nc3ccccc3o2)cc1', 'SNB-75', 'no');

INPUT: Test call, this molecule: Cc1ccc(/C=C2\CCCC(C(NO)c3ccc(C)cc3)C2=NO)cc1 (stereo not drawn)
OUTPUT: no

INPUT: Per the records of this test, what outcome belongs to CC1=NN(C(=O)c2ccccc2O)C(=O)/C1=C/c1cccc(O)c1 ?
OUTPUT: yes

INPUT: So what was the verdict on COc1ccc(C(=O)/C=C/c2ccc(OCC(=O)N3CCN(c4ccccc4)CC3)cc2)cc1 in this test?
OUTPUT: no

Attribution: ChEMBL document CHEMBL1201862
